Test system: MDA-MB-435
Assay: Growth inhibition of human MDA-MB-435 cells incubated for 48 hrs by sulforhodamine B assay
Assay type: functional
Conditions: MDA-MB-435, 48 h, read-out: GI50
measurement type: GI50 (nM)
Provide the reading as a plain figure in nM.

Example entries begin here.
c1ccc(-c2nc(Nc3ccc(-c4nc5ccccc5[nH]4)cc3)nc(N3CCOCC3)n2)cc1; 1760
c1ccc2[nH]c(-c3ccc(Nc4nc(N5CCCCC5)nc(N5CCOCC5)n4)cc3)nc2c1; 2060
Fc1ccc(-c2nc(Nc3ccc(-c4nc5ccccc5[nH]4)cc3)nc(N3CCOCC3)n2)cc1; 1940

Field: next compound
[Q] I am curious: what GI50 value has been reported for `Clc1ccc(-c2nc(Nc3ccc(-c4nc5ccccc5[nH]4)cc3)nc(N3CCOCC3)n2)cc1` ?
[A] 596
